- TARGET OR SYSTEM: mNET Y151I (Mus musculus, UniProt O55192, Y151I)
- Sequence (O55192 whole entry Y151I): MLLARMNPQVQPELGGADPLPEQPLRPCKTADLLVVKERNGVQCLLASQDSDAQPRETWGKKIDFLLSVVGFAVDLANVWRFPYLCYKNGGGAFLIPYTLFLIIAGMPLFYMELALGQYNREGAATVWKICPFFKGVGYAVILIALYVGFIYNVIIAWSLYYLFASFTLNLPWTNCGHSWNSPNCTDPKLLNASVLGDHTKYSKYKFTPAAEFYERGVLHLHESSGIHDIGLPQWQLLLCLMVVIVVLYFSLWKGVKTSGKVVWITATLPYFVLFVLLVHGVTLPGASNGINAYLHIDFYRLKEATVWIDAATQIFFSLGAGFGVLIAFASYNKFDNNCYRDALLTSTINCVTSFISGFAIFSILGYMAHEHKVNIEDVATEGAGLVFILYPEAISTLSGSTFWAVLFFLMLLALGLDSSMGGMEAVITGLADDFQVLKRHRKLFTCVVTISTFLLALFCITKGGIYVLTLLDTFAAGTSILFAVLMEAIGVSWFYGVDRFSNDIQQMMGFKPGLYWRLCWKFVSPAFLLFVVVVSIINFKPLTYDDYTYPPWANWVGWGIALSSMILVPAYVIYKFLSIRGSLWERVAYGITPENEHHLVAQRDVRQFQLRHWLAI
- METHOD SUMMARY: Uptake inhibition, mNET Y151I mutant
- Type: cell-based
- CONDITION SUMMARY: read-out: RTI-113 IC50 [nM] uptake inhibition, mean ± SEM
REPORTED METRIC: IC50
Reply with a number, then the unit it belongs to.

Field IC50 (entry CN1[C@H]2CC[C@@H]1[C@@H](C(=O)Oc1ccccc1)[C@@H](c1ccc(Cl)cc1)C2 [RTI-113] ) reads 199 nM

###

- TARGET OR SYSTEM: mNET Y151W (Mus musculus, UniProt O55192, Y151W)
- Sequence (O55192 whole entry Y151W): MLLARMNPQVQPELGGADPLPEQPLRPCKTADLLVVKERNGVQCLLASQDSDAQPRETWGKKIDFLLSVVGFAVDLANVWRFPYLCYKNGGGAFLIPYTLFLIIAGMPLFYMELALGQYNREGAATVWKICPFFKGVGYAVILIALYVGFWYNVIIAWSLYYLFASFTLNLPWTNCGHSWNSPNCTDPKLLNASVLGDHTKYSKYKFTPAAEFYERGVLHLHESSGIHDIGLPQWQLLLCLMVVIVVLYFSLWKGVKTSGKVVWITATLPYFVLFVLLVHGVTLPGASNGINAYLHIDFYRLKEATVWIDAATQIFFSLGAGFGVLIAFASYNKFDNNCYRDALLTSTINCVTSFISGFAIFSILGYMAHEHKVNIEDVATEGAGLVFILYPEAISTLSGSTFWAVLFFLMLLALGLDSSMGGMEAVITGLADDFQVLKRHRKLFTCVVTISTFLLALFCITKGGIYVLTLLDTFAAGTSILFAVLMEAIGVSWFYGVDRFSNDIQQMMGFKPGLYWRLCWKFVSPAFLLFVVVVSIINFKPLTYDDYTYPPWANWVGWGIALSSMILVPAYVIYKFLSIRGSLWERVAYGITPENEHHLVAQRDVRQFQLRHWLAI
- METHOD SUMMARY: Uptake inhibition, mNET Y151W mutant
- Format: cell-based
- CONDITION SUMMARY: read-out: RTI-113 IC50 [nM] uptake inhibition, mean ± SEM
REPORTED METRIC: IC50 (nM)
Answers are plain numbers, in nM.

Field IC50 (entry CN1[C@H]2CC[C@@H]1[C@@H](C(=O)Oc1ccccc1)[C@@H](c1ccc(Cl)cc1)C2 [RTI-113] ) reads 256

###

- TARGET OR SYSTEM: mNET Y151C (Mus musculus, UniProt O55192, Y151C)
- METHOD SUMMARY: Uptake inhibition, mNET Y151C mutant
- Format: cell-based
- CONDITION SUMMARY: read-out: RTI-113 IC50 [nM] uptake inhibition, mean ± SEM
REPORTED METRIC: IC50 (nM)
Give bare numbers, in nM.

Field IC50 (entry "CN1[C@H]2CC[C@@H]1[C@@H](C(=O)Oc1ccccc1)[C@@H](c1ccc(Cl)cc1)C2" ) reads 211

###

- TARGET OR SYSTEM: mNET Y151N (Mus musculus, UniProt O55192, Y151N)
- Sequence (O55192 whole entry Y151N): as the sequence (O55192 whole entry Y151I) above, with I151N counted along it
- METHOD SUMMARY: Uptake inhibition, mNET Y151N mutant
- Format: cell-based
- CONDITION SUMMARY: read-out: RTI-113 IC50 [nM] uptake inhibition, mean ± SEM
REPORTED METRIC: IC50 (nM)
One number for each entry, in nM.

Field IC50 (entry CN1[C@H]2CC[C@@H]1[C@@H](C(=O)Oc1ccccc1)[C@@H](c1ccc(Cl)cc1)C2 [RTI-113] ) reads 291
